Recorded values, source ChEMBL document CHEMBL4308906.

Molecular target: Cytochrome P450 1B1 (Homo sapiens)
Test: Inhibition of human recombinant CYP1B1 using 7-ethoxyresorufin as substrate assessed as percent enzyme activity at 1 uM after 30 mins in presence of NADPH by EROD assay relative to control
Set-up: scale not given: the % may be the effect or the level left
Details: read-out: Activity
assay-metric: activity at 0.5 h, 1 µM (%)

{"compound": "[N-]=[N+]=NCC1CCC(c2cc(=O)c3ccc4ccccc4c3o2)CC1 (mixture of isomers)", "target-desc": "Cytochrome P450 1B1 (Homo sapiens)", "assay-metric": "activity at 0.5 h, 1 µM", "measurement-units": "%", "endpoint-value": 2.2}
{"compound": "O=c1cc([C@H]2CC[C@@H](O)CC2)oc2c1ccc1ccccc12", "target-desc": "Cytochrome P450 1B1 (Homo sapiens)", "assay-metric": "activity at 0.5 h, 1 µM", "measurement-units": "%", "endpoint-value": 90.4}
{"compound": "[N-]=[N+]=Nc1ccc(-c2cc(=O)c3ccc4ccccc4c3o2)cc1", "target-desc": "Cytochrome P450 1B1 (Homo sapiens)", "assay-metric": "activity at 0.5 h, 1 µM", "measurement-units": "%", "endpoint-value": -0.5}
{"compound": "NC1CCCC(c2cc(=O)c3ccc4ccccc4c3o2)C1 (mixture of isomers)", "target-desc": "Cytochrome P450 1B1 (Homo sapiens)", "assay-metric": "activity at 0.5 h, 1 µM", "measurement-units": "%", "endpoint-value": 64.7}

a = O=c1cc(C2CCCC2)oc2c1ccc1ccccc12
b = O=c1cc(C2CC=CCC2)oc2c1ccc1ccccc12 (centres undefined)
c = O=c1cc([C@H]2CC[C@@H](S)CC2)oc2c1ccc1ccccc12
d = O=c1cc(-c2cccc(S)c2)oc2c1ccc1ccccc12
e = CN(C)C(=O)Sc1cccc(-c2cc(=O)c3ccc4ccccc4c3o2)c1
Exam item: Arrange by activity at 0.5 h, 1 µM, high to low. Field: ranking. Enter the labels in the order requested.
Marked response: a, d, b, e, c
(a: 55.3%, d: 9.8%, b: 6.5%, e: 2.4%, c: 0.5%)

====

Molecular target: CYP1A2 (Homo sapiens, UniProt P05177)
Sequence (P05177 whole entry): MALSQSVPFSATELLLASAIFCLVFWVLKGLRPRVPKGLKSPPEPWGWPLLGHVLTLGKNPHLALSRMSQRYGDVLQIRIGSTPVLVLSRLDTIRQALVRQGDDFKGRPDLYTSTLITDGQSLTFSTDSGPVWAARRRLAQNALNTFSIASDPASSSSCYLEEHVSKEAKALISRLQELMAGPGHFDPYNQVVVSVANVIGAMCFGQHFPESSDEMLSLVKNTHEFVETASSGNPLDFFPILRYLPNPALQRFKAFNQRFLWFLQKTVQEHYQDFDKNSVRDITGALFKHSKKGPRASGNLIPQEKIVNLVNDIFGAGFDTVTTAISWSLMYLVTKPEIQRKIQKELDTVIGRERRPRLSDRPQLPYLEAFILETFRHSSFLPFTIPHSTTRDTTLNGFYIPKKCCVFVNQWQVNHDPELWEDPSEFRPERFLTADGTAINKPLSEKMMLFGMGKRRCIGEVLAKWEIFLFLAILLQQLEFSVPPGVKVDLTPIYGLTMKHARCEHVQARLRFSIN
Experiment: Inhibition of human recombinant CYP1A2 using 7-ethoxyresorufin as substrate assessed as percent enzyme activity at 1 uM after 30 mins in presence of NADPH by EROD assay relative to control
Format: ADME
Design: scale not given: the % may be the effect or the level left
Conditions: recombinant CYP1A2, probe 7-ethoxyresorufin, read-out: Activity
assay-metric: activity at 0.5 h, 1 µM (%)

{"compound": "CS(=O)(=O)OCC1CCC(c2cc(=O)c3ccc4ccccc4c3o2)CC1 (racemic)", "activity at 0.5 h, 1 µM (%)": 96.4}
{"compound": "O=c1cc([C@H]2CC[C@H](O)CC2)oc2c1ccc1ccccc12", "activity at 0.5 h, 1 µM (%)": 76.2}
{"compound": "O=c1cc(C2CCC(CO)CC2)oc2c1ccc1ccccc12 (mixture of isomers)", "activity at 0.5 h, 1 µM (%)": 92.7}
{"compound": "CS(=O)(=O)O[C@H]1CCC[C@@H](c2cc(=O)c3ccc4ccccc4c3o2)C1 (relative stereo)", "activity at 0.5 h, 1 µM (%)": 79.1}

====

Molecular target: Cytochrome P450 1A1 (Homo sapiens)
Sequence (P04798 whole entry): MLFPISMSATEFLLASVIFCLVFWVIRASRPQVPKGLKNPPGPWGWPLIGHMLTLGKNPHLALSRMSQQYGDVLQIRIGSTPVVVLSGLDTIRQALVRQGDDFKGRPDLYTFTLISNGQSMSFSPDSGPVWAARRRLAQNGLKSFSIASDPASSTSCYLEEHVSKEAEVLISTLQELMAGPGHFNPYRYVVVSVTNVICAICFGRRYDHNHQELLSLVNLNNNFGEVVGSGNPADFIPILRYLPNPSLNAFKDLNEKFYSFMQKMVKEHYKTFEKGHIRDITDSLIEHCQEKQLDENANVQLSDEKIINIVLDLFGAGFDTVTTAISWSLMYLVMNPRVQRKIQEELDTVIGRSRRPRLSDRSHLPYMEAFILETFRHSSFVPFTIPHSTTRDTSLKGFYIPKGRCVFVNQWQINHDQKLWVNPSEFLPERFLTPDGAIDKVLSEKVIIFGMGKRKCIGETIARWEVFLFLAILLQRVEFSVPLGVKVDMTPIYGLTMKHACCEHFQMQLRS
Assay: Inhibition of human recombinant CYP1A1 using 7-ethoxyresorufin as substrate after 15 mins in presence of NADPH by EROD assay
Type: ADME
assay-metric: IC50 (µM)

{"test-smiles": "[N-]=[N+]=Nc1ccc(-c2cc(=O)c3ccc4ccccc4c3o2)cc1", "assay-metric": "IC50", "measurement-units": "µM", "endpoint-value": 0.0095}

1 = O=c1cc([C@H]2CC[C@H](S)CC2)oc2c1ccc1ccccc12
2 = [N-]=[N+]=N[C@H]1CC[C@@H](c2cc(=O)c3ccc4ccccc4c3o2)CC1
Exam item: Looking at 1 and 2 , which one comes out lower in IC50 terms? Identify your selection by its label.
Marked response: 1

====

Molecular target: Cytochrome P450 1B1 (Homo sapiens, UniProt Q16678)
Sequence (Q16678 whole entry): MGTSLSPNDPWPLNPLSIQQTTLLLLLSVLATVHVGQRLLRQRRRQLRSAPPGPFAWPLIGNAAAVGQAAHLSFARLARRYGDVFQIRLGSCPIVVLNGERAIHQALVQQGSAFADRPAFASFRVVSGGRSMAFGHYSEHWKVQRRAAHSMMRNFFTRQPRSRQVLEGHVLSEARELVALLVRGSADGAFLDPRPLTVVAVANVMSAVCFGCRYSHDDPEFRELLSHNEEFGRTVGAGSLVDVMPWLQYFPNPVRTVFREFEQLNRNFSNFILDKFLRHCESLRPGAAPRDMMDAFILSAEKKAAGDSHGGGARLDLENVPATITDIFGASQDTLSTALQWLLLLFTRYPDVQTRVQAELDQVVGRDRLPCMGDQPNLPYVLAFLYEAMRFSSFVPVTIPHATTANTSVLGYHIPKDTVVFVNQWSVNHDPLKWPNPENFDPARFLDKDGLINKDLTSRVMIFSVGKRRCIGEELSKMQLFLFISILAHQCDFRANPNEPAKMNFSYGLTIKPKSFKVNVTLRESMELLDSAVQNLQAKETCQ
Test: Inhibition of human recombinant CYP1B1 using 7-ethoxyresorufin as substrate assessed as percent enzyme activity at 1 uM after 30 mins in presence of NADPH by EROD assay relative to control
Set-up: scale not given: the % may be the effect or the level left
Settings: read-out: Activity
assay-metric: activity at 0.5 h, 1 µM (%)

{"compound": "C=C=C[C@H]1CC[C@H](c2cc(=O)c3ccc4ccccc4c3o2)CC1", "activity at 0.5 h, 1 µM, %": -0.4}
{"compound": "O=c1cc([C@H]2C[C@H]3C=C[C@@H]2C3)oc2c1ccc1ccccc12", "activity at 0.5 h, 1 µM, %": 74}
{"compound": "O=c1cc([C@H]2C[C@@H]3C=C[C@H]2C3)oc2c1ccc1ccccc12", "activity at 0.5 h, 1 µM, %": 83}

a = CS(=O)(=O)O[C@@H]1CCC[C@@H](c2cc(=O)c3ccc4ccccc4c3o2)C1 (relative stereo)
b = [N-]=[N+]=N[C@H]1CC[C@H](c2cc(=O)c3ccc4ccccc4c3o2)CC1
Exam item: So which one has the bigger activity at 0.5 h, 1 µM here, a or b ? Identify your selection by its label.
Marked response: a

P = CS(=O)(=O)O[C@H]1CC[C@H](c2cc(=O)c3ccc4ccccc4c3o2)CC1
Q = CC(C)C1CCC(c2cc(=O)c3ccc4ccccc4c3o2)CC1 (mixture of isomers)
Exam item: Looking at P and Q , which one comes out lower in activity at 0.5 h, 1 µM terms? Identify your selection by its label.
Marked response: Q
(Q: 27.9%, P: 72.5%)

====

Molecular target: CYP1A2 (Homo sapiens)
Assay: Inhibition of human recombinant CYP1A2 using 7-ethoxyresorufin as substrate assessed as percent enzyme activity at 1 uM after 30 mins in presence of NADPH by EROD assay relative to control
Assay type: ADME
Design: scale not given: the % may be the effect or the level left
Details: recombinant CYP1A2, probe 7-ethoxyresorufin, read-out: Activity
assay-metric: activity at 0.5 h, 1 µM (%)

{"test-smiles": "Nc1cccc(-c2cc(=O)c3ccc4ccccc4c3o2)c1", "measurement-units": "%", "activity at 0.5 h, 1 µM": -3.5}

A = O=c1cc([C@H]2CC[C@H](S)CC2)oc2c1ccc1ccccc12
B = O=c1cc(C2CCCC2)oc2c1ccc1ccccc12
C = O=c1cc([C@H]2CC[C@@H](O)CC2)oc2c1ccc1ccccc12
Exam item: Arrange by activity at 0.5 h, 1 µM, high to low. Field: ranking. Enter the labels in the order requested.
Marked response: C, B, A
(C: 77.3%, B: 34.5%, A: 0.6%)

A = N[C@H]1CC[C@H](c2cc(=O)c3ccc4ccccc4c3o2)CC1
B = O=c1cc([C@H]2C[C@H]3C=C[C@@H]2C3)oc2c1ccc1ccccc12
C = [N-]=[N+]=N[C@H]1CC[C@H](c2cc(=O)c3ccc4ccccc4c3o2)CC1
D = O=c1cc(-c2ccccc2)oc2c1ccc1ccccc12
Exam item: Provide the items ranked by increasing activity at 0.5 h, 1 µM. Field: ranking. Enter the labels in the order requested.
Marked response: D, B, C, A
